Values were extracted from patent US20200102264A1.

# Tested on: MiaPaCa-2 pancreatic cancer cells
# experimental_protocol: hexoseaminidase cell proliferation assay, MiaPaCa-2
# Type: cell-based
# experimental_conditions: MiaPaCa-2, 72 h
Quick reference: IC50 of the listed items.
Kindly answer with a numeric value in µM, unit omitted.

{"item_smiles": "O=C(N/N=C/c1ccc(O)c(O)c1)c1cc2ccccc2cc1O", "readout_value": 10}

Please provide the recorded IC50 for O=C(N/N=C/c1ccc(O)c(O)c1O)c1cc2ccccc2cc1O , tested on MiaPaCa-2 pancreatic cancer cells. 10

---

# System: HCT116 colon cancer cells
# experimental_protocol: hexoseaminidase cell proliferation assay, HCT116
# Assay type: cell-based
# experimental_conditions: Homo sapiens, HCT-116; HCT116, 24 h
parameter_measured: IC50

Form entry - test system: HCT116 colon cancer cells; read-out: IC50; molecule: CC(C)(C)C1=CC(=NNC(=O)c2cc3ccccc3cc2O)C=C(C(C)(C)C)C1=O 10 µM

Find IC50 (HCT116 colon cancer cells) for the entry C/C(=N\NC(=O)Cc1cc2ccccc2[nH]1)c1ccc2ccccc2c1O > 10 µM

State its IC50 on HCT116 colon cancer cells: C/C(=N\NC(=O)c1ccccc1)c1ccc2ccccc2c1O > 10 µM

Recorded IC50 for C/C(=N\NC(N)=S)c1ccc2ccccc2c1O with HCT116 colon cancer cells, please? > 10 µM

API: value(readout=IC50, system=HCT116 colon cancer cells) for record C/C(=N\NC(=O)c1cc2ccccc2cc1O)c1cc2ccccc2oc1=O > 50 µM

Query the reported IC50 for HCT116 colon cancer cells; item: C/C(=N\NC(=O)c1ccccc1O)c1ccc2ccccc2c1O > 10 µM
